Form field: MIC (one value per entry).
Tested on: Escherichia coli
ASSAY_DETAILS: Minimum inhibitory concentration against Escherichia coli
Format: functional
The reply should be a number in µg/mL, with the unit left off.

N[C@@H](C(=O)N[C@@H]1C(=O)N2C(C(=O)O)=C(Cl)CS[C@H]12)c1ccccc1.O; 1
Nc1nc(CC(=O)N[C@@H]2C(=O)N3C(C(=O)O)=C(Cl)CSC23)cs1 (some centres not stated); 1
O=C(COc1ccccc1)N[C@@H]1C(=O)N2C(C(=O)O)=C(Cl)CSC12 (some centres not stated); 64

Field request: MIC | item: O=C(Cc1cccs1)N[C@@H]1C(=O)N2C(C(=O)O)=C(Cl)CSC12 (some centres not stated)
4

Field request: MIC | item: CO[C@@]1(NC(=O)Cc2csc(N)n2)C(=O)N2C(C(=O)O)=C(Cl)CSC21 (some centres not stated)
8

Data credit: ChEMBL document CHEMBL1123987
